Test system: HL-1
Assay: relative cell viability (CellTiter-Glo) vs DMSO control (% of DMSO control); higher = more viable cells
Conditions: oxygen condition: hypoxia 48 h (1% O2) + reoxygenation 24 h; 1000 nM
Counter-ions that a name gives are not always drawn.
Would you mind telling me the reported relative cell viability of each entry?
Lab note: jot the number down without any unit.

# input Entry COC(=O)[C@@H]1CC2=CC(=O)CC[C@]2(C)[C@@]23O[C@@H]2C[C@@]2(C)[C@@H](CC[C@@]24CCC(=O)O4)[C@H]13 : reported relative cell viability = ?
# output 101

# input Entry Nc1nc(N)nc(-c2cc(Cl)ccc2Cl)n1 : reported relative cell viability = ?
# output 107

# input Entry CC1(C)[C@@H](OC(=O)CCC(=O)O)CC[C@]2(C)[C@H]3C(=O)C=C4[C@@H]5C[C@@](C)(C(=O)O)CC[C@]5(C)CC[C@@]4(C)[C@]3(C)CC[C@@H]12 [Carbenoxolone Sodium] : reported relative cell viability = ?
# output 100

# input Entry Cc1ccc(NC(=O)c2ccc(CN3CCN(C)CC3)cc2)cc1Nc1nccc(-c2cccnc2)n1 [Imatinib] : reported relative cell viability = ?
# output 110

# input Entry CCN(CC)CCNC(C(=O)OCCC(C)C)c1ccccc1 (stereo unspecified) [Camylofin Chlorhydrate] : reported relative cell viability = ?
# output 106

# input Entry O=C(CCNNC(=O)c1ccncc1)NCc1ccccc1 [Nialamide] : reported relative cell viability = ?
# output 108

# input Entry C[C@]12C=CC(=O)N[C@@H]1CC[C@@H]1[C@@H]2CC[C@]2(C)[C@@H](C(=O)Nc3cc(C(F)(F)F)ccc3C(F)(F)F)CC[C@@H]12 [Dutasteride] : reported relative cell viability = ?
# output 109

# input Entry Nc1[nH]cnc2ncnc1-2 [Adenine hydrochloride] : reported relative cell viability = ?
# output 104

# input Entry CCOc1ccccc1OC(c1ccccc1)C1CNCCO1 (stereo unspecified) [Reboxetine mesylate] : reported relative cell viability = ?
# output 105

# input Entry O=C1CCc2cc(OCCCCc3nnnn3C3CCCCC3)ccc2N1 : reported relative cell viability = ?
# output 111

# input Entry CCCSc1nc(N[C@@H]2C[C@H]2c2ccc(F)c(F)c2)c2nnn([C@@H]3C[C@H](OCCO)[C@@H](O)[C@H]3O)c2n1 : reported relative cell viability = ?
# output 108

# input Entry CSc1ccc2c(c1)N(CCC1CCCCN1C)c1ccccc1S2 (stereo unspecified) [Thioridazine HCl] : reported relative cell viability = ?
# output 101

# input Entry CN1CCN2c3ccccc3Cc3ccccc3C2C1 (stereo unspecified) [Mianserin hydrochloride] : reported relative cell viability = ?
# output 84

# input Entry Cc1nc(Nc2ncc(C(=O)Nc3c(C)cccc3Cl)s2)cc(N2CCN(CCO)CC2)n1 : reported relative cell viability = ?
# output 80.2

# input Entry CN(C)CCOC(C)(c1ccccc1)c1ccccn1 (stereo unspecified) [Doxylamine Succinate] : reported relative cell viability = ?
# output 105

# input Entry CC(O)(P(=O)(O)O)P(=O)(O)O [Etidronate] : reported relative cell viability = ?
# output 99.7

# input Entry CN1CCN(CCCN2c3ccccc3Sc3ccc(C(F)(F)F)cc32)CC1 [Trifluoperazine 2HCl] : reported relative cell viability = ?
# output 105

# input Entry CC[C@H]1OC(=O)C[C@@H](O)[C@H](C)[C@@H](O[C@@H]2O[C@H](C)[C@@H](O[C@H]3C[C@@](C)(O)[C@@H](O)[C@H](C)O3)[C@H](N(C)C)[C@H]2O)[C@@H](CC=O)C[C@@H](C)C(=O)/C=C/C(C)=C/[C@@H]1CO[C@@H]1O[C@H](C)[C@@H](O)[C@@H](OC)[C@H]1OC [Tylosin tartrate] : reported relative cell viability = ?
# output 99.4

# input Entry C[N+]1(C)CCC(=C(c2ccccc2)c2ccccc2)CC1 [Diphemanil methylsulfate] : reported relative cell viability = ?
# output 104

# input Entry C[C@@]12C[C@@]3(O)O[C@@H](O1)[C@]1(COC(=O)c4ccccc4)[C@H]3C[C@@]12O[C@@H]1O[C@H](CO)[C@@H](O)[C@H](O)[C@H]1O : reported relative cell viability = ?
# output 108

# input Entry CNC(=O)c1cc(Oc2ccc(NC(=O)Nc3ccc(Cl)c(C(F)(F)F)c3)cc2)ccn1 : reported relative cell viability = ?
# output 116

# input Entry CC1=C(CC(=O)O)c2cc(F)ccc2/C1=C\c1ccc([S+](C)[O-])cc1 (stereo unspecified) : reported relative cell viability = ?
# output 106

# input Entry CC(C)(OCc1nn(Cc2ccccc2)c2ccccc12)C(=O)O : reported relative cell viability = ?
# output 100

# input Entry CCOc1cc(CC(=O)N[C@@H](CC(C)C)c2ccccc2N2CCCCC2)ccc1C(=O)O [Repaglinide] : reported relative cell viability = ?
# output 109

# input Entry [I-].[K+] [Potassium iodide] : reported relative cell viability = ?
# output 102

# input Entry COC(=O)[C@H]1[C@H]2C[C@@H]3c4[nH]c5cc(OC)ccc5c4CCN3C[C@H]2C[C@@H](OC(=O)c2cc(OC)c(OC)c(OC)c2)[C@@H]1OC : reported relative cell viability = ?
# output 107

# input Entry CCN(CC)CC#CCOC(=O)C(O)(c1ccccc1)C1CCCCC1 (stereo unspecified) [Oxybutynin] : reported relative cell viability = ?
# output 101

# input Entry CCOC(=O)C1=C(C)NC(C)=C(C(=O)OC)C1c1cccc([N+](=O)[O-])c1 (stereo unspecified) : reported relative cell viability = ?
# output 98.1

# input Entry CCN(CC)C(=S)SSC(=S)N(CC)CC : reported relative cell viability = ?
# output 4.82

# input Entry COc1ccc(Cl)cc1C(=O)NCCc1ccc(S(=O)(=O)NC(=O)NC2CCCCC2)cc1 [Glyburide] : reported relative cell viability = ?
# output 103

# input Entry CN(Cc1cc(Br)cc(Br)c1N)C1CCCCC1 [Bromhexine HCl] : reported relative cell viability = ?
# output 99.9
